Assignment: determine reported efficacy for the given molecules.
tested on: Tetranychus urticae; assay: Tetranychus urticae spray test, OP-resistant (bean leaf discs); format: in vivo; conditions: 100 g/ha; after 6 days
Answers are plain numbers, in %.

• CC(=O)NCc1cc(-c2cnn(-c3c(Cl)cc(C(F)(C(F)(F)F)C(F)(F)F)cc3Cl)c2)ccc1F [Ia-15] = 100
• CC(=O)NCc1cc(-c2cnn(-c3c(Cl)cc(C(F)(C(F)(F)F)C(F)(F)F)cc3C#N)c2)ccc1Cl [Ia-104] = 100
• CC(=O)NCc1cc(-c2cnn(-c3c(Cl)cc(C(F)(C(F)(F)F)C(F)(F)F)cc3C(F)F)c2)cnc1Cl [Ia-145] = 100
• CC(=O)NCc1cc(-c2cnn(-c3c(Cl)cc(C(F)(C(F)(F)F)C(F)(F)F)cc3C(F)F)c2)ccc1Cl [Ia-106] = 100
• CC(=O)NCc1cc(-c2cnn(-c3c(Cl)cc(C(F)(C(F)(F)F)C(F)(F)F)cc3C#N)c2)ccc1C [Ia-96] = 100

Give me efficacy for each of these molecules, listed below.
1. CC(=O)NCc1cccc(-c2cnn(-c3c(Cl)cc(C(F)(C(F)(F)F)C(F)(F)F)cc3Cl)c2)c1 [Ia-09]
2. CCC(=O)NCc1cc(-c2cnn(-c3c(Cl)cc(C(F)(C(F)(F)F)C(F)(F)F)cc3C(F)(F)F)c2)ccc1C [Ia-80]
3. CC(=O)NCc1cc(-c2cnn(-c3c(C)cc(C(F)(C(F)(F)F)C(F)(F)F)cc3C)c2)ccc1Cl [Ia-95]

[90, 100, 100]

What the record says about CC(=O)N(Cc1cc(-c2cnn(-c3c(Cl)cc(C(F)(C(F)(F)F)C(F)(F)F)cc3Cl)c2)ccc1Cl)C(C)=O [Ia-108] : efficacy is 90

Origin of values: patent US10357036B2
